Listing: pEC50 of selected compounds
# Target Entity: human Fpn-GFP fusion (Homo sapiens, UniProt Q9NP59)
# Construct: expressed in transfected cells; host or cells: HEK-293 cell line #354 (derivative of HEK-293 Tet-ON Advanced, Clontech)
# Sequence (Q9NP59 1-571): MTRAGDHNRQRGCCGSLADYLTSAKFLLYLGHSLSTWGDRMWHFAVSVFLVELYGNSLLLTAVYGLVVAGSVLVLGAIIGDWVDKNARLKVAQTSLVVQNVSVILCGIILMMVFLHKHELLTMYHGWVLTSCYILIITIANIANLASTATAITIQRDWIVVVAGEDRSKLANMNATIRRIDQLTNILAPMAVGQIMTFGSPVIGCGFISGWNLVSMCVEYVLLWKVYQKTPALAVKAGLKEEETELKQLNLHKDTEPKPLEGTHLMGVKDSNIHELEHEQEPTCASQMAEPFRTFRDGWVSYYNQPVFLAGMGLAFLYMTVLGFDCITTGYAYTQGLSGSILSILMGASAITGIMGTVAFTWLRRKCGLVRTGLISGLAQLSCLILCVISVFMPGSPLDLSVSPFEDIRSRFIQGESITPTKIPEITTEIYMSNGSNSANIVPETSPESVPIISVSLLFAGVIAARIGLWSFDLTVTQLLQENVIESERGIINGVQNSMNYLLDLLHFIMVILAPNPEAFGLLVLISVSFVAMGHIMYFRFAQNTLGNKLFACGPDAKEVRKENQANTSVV
# Method Description: Inhibition of ferroportin mediated iron export activity in an iron response assay (BLAzer)
# Format: cell-based
# Setup Conditions: average of multiple measurements; HEK-293 cell line #354; read-out: BLAzer EC50
Notebook: values listed as pEC50 are -log10 of the concentration (mol/L).

Cc1cccc(CNC(=O)c2csc(CCNCc3nc4ccccc4[nH]3)n2)n1    4.44

Given O=C(NCc1ncccc1F)c1ncn(CCNCCc2nc3ccccc3[nH]2)n1 , state its recorded pEC50.
5.43

What would you report for CN1CCN(c2ccccc2CNC(=O)c2csc(CCNCc3nc4ccccc4[nH]3)n2)CC1 ?
4.98

What would you report for Cc1ccc(F)c(CNC(=O)c2csc(CCNCc3nc4ccccc4[nH]3)n2)n1 ?
6.08

What would you report for O=C(NCc1ncccc1C(F)(F)F)c1csc(CCNCc2nc3ccccc3[nH]2)n1 ?
5.10

What would you report for O=C(NCc1ccccc1)c1csc(CCNCCc2nc3ccccc3[nH]2)n1 ?
5.60

What would you report for O=C(NCc1ccc(F)cn1)c1csc(CCNCc2nc3ccccc3[nH]2)n1 ?
4.51

What would you report for O=C(NCc1ccncn1)c1csc(CCNCc2nc3ccccc3[nH]2)n1 ?
4.74

What would you report for O=C(NCc1cccnn1)c1nc(CCNCc2nc3ccccc3[nH]2)sc1Cl ?
4.76

What would you report for O=C(NCc1ccccc1)c1csc(CCNCc2nc3cc(C(F)(F)F)ccc3[nH]2)n1 ?
5.35

What would you report for Cc1ccc2[nH]c(CNCCc3nc(C(=O)NCc4ccccc4)cs3)nc2c1 ?
5.73

----------
# Target Entity: human Fpn (Homo sapiens)
# Construct: FLAG (C); made in house; host or cells: Pichia pastoris
# Method Description: Biophysical Ferroportin-Hepcidin Binding Assay (fluorescence polarization)
# Setup Conditions: average of multiple measurements; 1 μM human Fpn, 20 nM TMR-hepcidin; read-out: FP IC50
pIC50: −log10 of the molar value.
Label met when pIC50 is at or above 5; otherwise label not met.

Solved cases (3 shown):
O=C(NCc1cccnn1)c1csc(CCNCCc2nc3ccccc3[nH]2)n1    met
O=C(NCCc1ccccc1)c1csc(CCNCc2nc3ccccc3[nH]2)n1    met
O=C(NCCc1ccccn1)c1csc(CCNCc2nc3ccccc3[nH]2)n1    met

Hi team, for O=C(NCc1ncccc1F)c1csc(CCCNc2nc3ccccc3[nH]2)n1 , is the recorded pIC50 at or above 5?
not met

What would you report for CN(Cc1ccccc1)C(=O)c1csc(CCNCc2nc3ccccc3[nH]2)n1 ?
met

What would you report for Cc1cccc(CNC(=O)c2csc(CCNCc3nc4ccccc4[nH]3)n2)n1 ?
met

What would you report for O=C(NCc1cccc(=O)[nH]1)c1csc(CCNCc2nc3ccccc3[nH]2)n1 ?
met

What would you report for O=C(NCc1ncccc1F)c1csc(CCNCc2cccc3nc[nH]c23)n1 ?
met

----------
# Target Entity: ferroportin (Fpn) (Mus musculus, UniProt Q9JHI9)
# Construct: host or cells: J774 mouse macrophage cell line, Fe(III)-NTA induced
# Method Description: Hepcidin Internalization Assay (J774)
# Format: cell-based
# Setup Conditions: average of multiple measurements; inhibition of TMR-hepcidin (25 nM) internalization into J774 cells; read-out: J774 IC50
Experimental Readout: IC50 (nM)
Numeric only. Scale: nM

In the examples that follow, each entry is paired with its recorded IC50.
CC(C)(Cc1nc(C(=O)NCc2ncccc2F)cs1)NCc1nc2ccccc2[nH]1 [Example 231]    5200
Cn1cc(C(=O)NCc2ncccc2F)nc1CCNCc1nc2ccccc2[nH]1 [Example 210]    4910
O=C(NCc1ccccc1)c1csc(CCNCCc2nc3ccccc3[nH]2)n1 [Example 29]    510
O=C(NCc1ccccc1)c1csc(CCNCc2ccncn2)n1 [Example 27]    38400
CN1CCN(c2ccccc2CNC(=O)c2csc(CCNCc3nc4ccccc4[nH]3)n2)CC1 [Example 68]    2500
O=C(NCc1ccncc1F)c1csc(CCNCc2nc3ccccc3[nH]2)n1 [Example 89]    89
O=C(CCNCCc1nc2ccccc2[nH]1)NCC(=O)NCc1ncccc1F [compound 190]    740
Cc1cnc(CNC(=O)c2nc(CCNCCc3nc4ccccc4[nH]3)sc2Cl)nc1 [Example 182]    989

Given CN(C(=O)c1csc(CCNCc2nc3ccccc3[nH]2)n1)c1ccccc1 [Example 19] , state its recorded IC50.
10000

What would you report for C=C(C)c1sc(CCNCc2nc3ccccc3[nH]2)nc1C(=O)NCc1ncccc1F [Example 177] ?
4200

What would you report for CN(CCc1nc2ccccc2[nH]1)CCc1nc(C(=O)NCc2ncccc2F)co1 [Example 223] ?
1900

----------
# Target Entity: ferroportin (Fpn) (Mus musculus)
# Construct: host or cells: J774 mouse macrophage cell line, Fe(III)-NTA induced
# Sequence (Q9JHI9 1-570): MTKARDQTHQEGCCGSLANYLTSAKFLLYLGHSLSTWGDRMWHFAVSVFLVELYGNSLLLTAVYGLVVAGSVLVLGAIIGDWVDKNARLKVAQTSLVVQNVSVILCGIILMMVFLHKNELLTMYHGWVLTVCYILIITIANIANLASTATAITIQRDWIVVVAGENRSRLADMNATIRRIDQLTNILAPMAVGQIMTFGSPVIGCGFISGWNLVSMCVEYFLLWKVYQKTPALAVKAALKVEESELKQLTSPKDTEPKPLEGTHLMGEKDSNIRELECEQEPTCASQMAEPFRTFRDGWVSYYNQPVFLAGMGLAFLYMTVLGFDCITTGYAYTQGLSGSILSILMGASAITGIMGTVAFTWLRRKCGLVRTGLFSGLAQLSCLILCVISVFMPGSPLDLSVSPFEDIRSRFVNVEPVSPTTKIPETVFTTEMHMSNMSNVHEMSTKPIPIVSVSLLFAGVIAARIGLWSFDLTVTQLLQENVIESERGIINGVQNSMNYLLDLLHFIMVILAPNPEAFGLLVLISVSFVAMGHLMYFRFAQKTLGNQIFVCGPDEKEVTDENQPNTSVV
# Method Description: Hepcidin Internalization Assay (J774)
# Type: cell-based
# Setup Conditions: average of multiple measurements; inhibition of TMR-hepcidin (25 nM) internalization into J774 cells; read-out: J774 IC50
Listing: pIC50 of selected compounds
Notebook: values listed as pIC50 are -log10 of the concentration (mol/L).

In the examples that follow, each entry is paired with its recorded pIC50.
O=C(NCc1cccnn1)c1coc(C2CN(CCc3nc4ccccc4[nH]3)C2)n1    7.05
Cc1sc(CCNCc2nc3ccccc3[nH]2)nc1C(=O)NCc1ncccc1F    6.46
O=C(NCc1ncccc1F)c1cn(CCNCc2nc3ccccc3[nH]2)nc1C(F)(F)F    5.61
O=C(NCc1ncccc1F)c1csc(CCNc2nc3ccccc3[nH]2)n1    6.33

# ---- query compound ----
Given Cn1ccnc1CNCCc1nc(C(=O)NCc2ccccc2)cs1 , state its recorded pIC50.
5.20

----------
Listing: pEC50 of selected compounds
# Target Entity: human Fpn-GFP fusion (Homo sapiens, UniProt Q9NP59)
# Construct: expressed in transfected cells; host or cells: HEK-293 cell line #354 (derivative of HEK-293 Tet-ON Advanced, Clontech)
# Method Description: Inhibition of ferroportin mediated iron export activity in an iron response assay (BLAzer)
# Type: cell-based
# Setup Conditions: average of multiple measurements; HEK-293 cell line #354; read-out: BLAzer EC50
Notebook: values listed as pEC50 are -log10 of the concentration (mol/L).

O=C(NCc1cccnn1)c1csc(CCNCCc2nc3ccccc3[nH]2)n1    5.36
O=C(NCc1ncc(C(F)(F)F)cc1Cl)c1csc(CCNCc2nc3ccccc3[nH]2)n1    5.53
O=C(NCc1ncccc1F)c1cncc(CCNCCc2nc3c(F)cccc3[nH]2)c1    4.89
O=C(NCc1ccccn1)c1csc(CCNCc2nc3ccccc3[nH]2)n1    5.08
O=C(NCc1ncc(F)cc1Cl)c1csc(CCNCc2nc3ccccc3[nH]2)n1    5.73
O=C(NCc1ncccc1F)c1csc(CCNCCc2nc3c(F)cccc3[nH]2)n1    5.85
Cn1cncc1CNC(=O)c1csc(CCNCc2nc3ccccc3[nH]2)n1    4.88
O=C(NCc1ncccc1F)c1coc(CCNCCc2nc3c(Cl)cccc3[nH]2)n1    5.63
O=C(NCCCCNCc1nc2ccccc2[nH]1)NCc1ncccc1F    4.74
Cc1ccc(CNC(=O)c2csc(CCNCc3nc4ccccc4[nH]3)n2)nc1    5.74

Given O=C(NCc1ccccc1F)c1csc(CCNCc2nc3ccccc3[nH]2)n1 , state its recorded pEC50.
4.49

What would you report for O=C(NCc1ncccc1F)c1csc(CCNCCc2nc3ccccc3[nH]2)n1 ?
6.28

Data provenance: patent US10738041B2
